- Test system: HL-60(TB) leukemia
- experiment: NCI-60 one-dose screen, 48 h
- conditionContext: 10 µM unless noted
About 83,000 compounds went through this panel and 20% of them were active in at least one assay; those are over-represented in the sample as a whole. Activity calls are given as the source filed them. The calls were made as follows: active = growth percent below 10; inactive = the rest.
Possible outcomes: 1.0 for active, 0.0 for inactive

{"columns": ["compound", "answerLabel"],
 "data": [
  ["O=C(O)c1ccc(OCc2ccccc2)cc1", 0.0],
  ["COc1cc(C(=O)/C=C/c2c(C)n([O-])c3ccc(C(F)(F)F)cc3[n+]2=O)cc(OC)c1OC", 0.0],
  ["Cc1nc2ccccc2c2nnc(SCC(=O)N(Cc3ccccc3)c3ccccc3)n12", 0.0],
  ["Nc1ccc(S(=O)(=O)c2ccc(N)cc2)cc1", 0.0],
  ["Nc1c(C(=O)Nc2ccccc2Cl)sc2nc3c(cc12)C(O)CCC3 (stereo unspecified)", 1.0],
  ["O=C1c2ccccc2C(=O)c2c1ccc1[nH]c(CCl)nc21", 1.0]
]}
